- assayed.target: PRMT5 MTA (Homo sapiens (Human))
- Sequence (O14744 whole entry, looked up): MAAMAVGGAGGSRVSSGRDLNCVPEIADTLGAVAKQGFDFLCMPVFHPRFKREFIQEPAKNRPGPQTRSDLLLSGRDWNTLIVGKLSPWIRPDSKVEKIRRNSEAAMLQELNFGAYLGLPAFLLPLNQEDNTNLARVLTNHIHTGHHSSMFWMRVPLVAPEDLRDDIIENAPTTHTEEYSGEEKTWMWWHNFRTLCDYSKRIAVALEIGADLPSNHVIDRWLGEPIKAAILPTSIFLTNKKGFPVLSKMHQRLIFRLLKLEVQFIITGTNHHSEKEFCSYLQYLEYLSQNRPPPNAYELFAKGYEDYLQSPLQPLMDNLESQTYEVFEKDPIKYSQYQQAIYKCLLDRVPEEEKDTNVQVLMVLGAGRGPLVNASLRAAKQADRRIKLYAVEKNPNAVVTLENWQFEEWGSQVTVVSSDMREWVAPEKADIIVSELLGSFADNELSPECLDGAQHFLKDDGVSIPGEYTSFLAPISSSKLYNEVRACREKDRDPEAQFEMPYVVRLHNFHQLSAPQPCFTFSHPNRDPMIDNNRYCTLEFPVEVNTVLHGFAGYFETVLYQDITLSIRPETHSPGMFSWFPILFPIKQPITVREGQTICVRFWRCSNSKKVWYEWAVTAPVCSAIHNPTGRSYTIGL
- Sequence (Q9BQA1 whole entry partner, looked up): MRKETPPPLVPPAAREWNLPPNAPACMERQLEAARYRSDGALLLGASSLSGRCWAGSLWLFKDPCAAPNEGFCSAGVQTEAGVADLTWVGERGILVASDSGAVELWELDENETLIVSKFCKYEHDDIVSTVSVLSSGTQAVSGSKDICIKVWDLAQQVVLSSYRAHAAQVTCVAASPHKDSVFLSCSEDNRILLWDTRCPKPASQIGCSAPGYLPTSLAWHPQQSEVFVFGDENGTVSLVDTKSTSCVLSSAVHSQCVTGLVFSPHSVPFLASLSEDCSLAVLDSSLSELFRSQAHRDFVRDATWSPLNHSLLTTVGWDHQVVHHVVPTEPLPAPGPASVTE
- assay.procedure: PRMT5 inhibitory activity assay in vitro, enzyme solution with MTA ([3H]-SAM Flashplate)
- Assay type: biochemical
- experimental.setup: MTA 2.0 um; read-out: Enzyme activity inhibition rate PRMT5 MTA (2.0 um) IC50 (nm)
- Source text: Biological Test Example 1 PRMT5 Inhibitory Activity Assay In Vitro PRMT5 (Active Motiv, catalog number 31921), [^3H]—SAM (Perkin Elmer, catalog number NET155V001MC), SAM (Sigma, catalog number A7007), MTA (Sigma, catalog number D5011), SAH (Sigma, catalog number A9384), 384-well plate (Perkin Elmer, catalog number 6007299), Echo 550 (manufacturer: Labcyte, model: Echo 550), 384-well Flashplate (manufacturer: Perkin Elmer, model: SMP410A001PK) […]
Each item that follows carries a reported IC50.
observable: IC50 (nM)

[[record]]
compound = "CC(c1ncccn1)N(Cc1cn2ccccc2n1)C(=O)c1ccc2nc(N)c3c(c2c1)CCC3 (stereo not shown)"
value_measured = 5.1

[[record]]
compound = "COCC(C1CC1)N(Cc1nc2ccccc2[nH]1)C(=O)c1ccc2nc(N)c(C)cc2c1 (stereo not shown)"
value_measured = 3.7

[[record]]
compound = "CC(C)CN(Cc1nc2ccc(C(F)(F)F)cc2[nH]1)C(=O)c1ccc2nc(N)c3cnn(C)c3c2c1"
value_measured = 4.4

[[record]]
compound = "CCN(Cc1cn2ccccc2n1)C(=O)c1cc2c(cc1F)nc(N)c1cnn(C)c12"
value_measured = 3

